experimentalSystem: natural (wild type) E. indica EPSPS (EiEPSPS), recombinant expressed in E. coli (Eleusine indica, UniProt Q95AK0)
protocolDetails: ForteBio Octet binding kinetics, wild type EPSPS
reportedConditions: Wild type EPSPS; Octet SSA biosensors, HEPES pH 7.5; read-out: KD, dissociation constant (KD = Koff/Kon)
measurementType: Kd (mM)
I only need the number, in mM, no unit after it.

*Q* Item under review: C=C(OP(=O)(O)O)C(=O)O [PEP, phosphoenolpyruvate] . Reported Kd?
*A* 3.1

###

experimentalSystem: E. indica EPSPS Pro106Leu (P106L) mutant, recombinant expressed in E. coli (Eleusine indica, UniProt Q95AK0, P107L)
protocolDetails: biochemical
measurementType: pKd
// scale note: pKd = -log10(conc_M); give the bare number

- molecule: "C=C(OP(=O)(O)O)C(=O)O [PEP, phosphoenolpyruvate]"
  pKd: 2.96

We next turn to a different molecule, shown below.
*Q* Item under review: O=C(O)CNCP(=O)(O)O [Glyphosate, glyphosate] . Reported pKd?
*A* 4.55

###

experimentalSystem: natural (wild type) E. indica EPSPS (EiEPSPS), recombinant expressed in E. coli (Eleusine indica)
Sequence (Q95AK0 43-445): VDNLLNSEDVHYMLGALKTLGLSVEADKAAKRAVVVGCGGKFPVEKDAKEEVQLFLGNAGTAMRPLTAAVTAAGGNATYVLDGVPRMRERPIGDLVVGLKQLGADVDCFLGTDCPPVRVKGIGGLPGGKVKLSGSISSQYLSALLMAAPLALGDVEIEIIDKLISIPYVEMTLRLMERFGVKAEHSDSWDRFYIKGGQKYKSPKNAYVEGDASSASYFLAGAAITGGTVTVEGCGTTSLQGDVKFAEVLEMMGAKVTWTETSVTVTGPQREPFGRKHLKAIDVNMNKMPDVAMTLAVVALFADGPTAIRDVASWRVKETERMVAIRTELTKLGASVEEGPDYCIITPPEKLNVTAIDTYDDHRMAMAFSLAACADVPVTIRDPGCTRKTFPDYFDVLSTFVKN
protocolDetails: ForteBio Octet binding kinetics, wild type EPSPS
measurementType: pKd
// scale note: pKd = -log10(conc_M); give the bare number

*Q* Item under review: O=C(O)CNCP(=O)(O)O [Glyphosate, glyphosate] . Reported pKd?
*A* 4.24
